# Tested on: Nakaseomyces glabratus
# assaySummary: Antimicrobial activity against Candida glabrata by Alamar blue method
# Assay type: functional, organism-based
property: MFC (µg/mL)
# output: bare number, implied unit µg/mL

Consider the reported MFC for these molecules:
givenSmiles	assayedSystem	experimentalResult
Fc1ccc(CSc2cc3ccccc3[n+](CCCCCC3CCCCC3)c2)cc1.[I-]	Nakaseomyces glabratus	2.5
Clc1ccc(CSc2cc3ccccc3[n+](CCCCCC3CCCCC3)c2)cc1.[I-]	Nakaseomyces glabratus	1.3

With those in mind, consider the next molecule.
Q. Determine its reported MFC: "C[C@@H]1[C@H](O)[C@@H](C)/C=C/C=C/C=C/C=C/C=C/C=C/C=C/[C@H](O[C@@H]2O[C@H](C)[C@@H](O)[C@H](N)[C@@H]2O)C[C@@H]2O[C@](O)(C[C@@H](O)C[C@@H](O)[C@H](O)CC[C@@H](O)C[C@@H](O)CC(=O)O[C@H]1C)C[C@H](O)[C@H]2C(=O)O"
A. 1.3

###

# Test system: Pichia kudriavzevii
# assaySummary: Antimicrobial activity against Candida krusei ATCC 6258 by Alamar blue method
# Assay type: functional, organism-based
MIC values for the molecules below.

Consider the reported MIC for these molecules:
molecule	MIC
Oc1ccc(CSc2cc3ccccc3[n+](CCCCCC3CCCCC3)c2)cc1.[I-]	1.3 µg/mL
N#Cc1ccc(CSc2cc3ccccc3[n+](CCCCCC3CCCCC3)c2)cc1.[I-]	10 µg/mL
Fc1ccc(CSc2cc3ccccc3[n+](CCCCCC3CCCCC3)c2)cc1.[I-]	0.63 µg/mL
N#Cc1cccc(CSc2cc3ccccc3[n+](CCCCCC3CCCCC3)c2)c1.[I-]	2.5 µg/mL
Cc1ccccc1CSc1cc2ccccc2[n+](CCCCCC2CCCCC2)c1.[I-]	2.5 µg/mL

Q. Determine its reported MIC: "Clc1ccc(CSc2cc3ccccc3[n+](CCCCCC3CCCCC3)c2)cc1.[I-]"
A. 0.16 µg/mL

Q. Determine its reported MIC: "[I-].c1ccc2c(c1)cc(SC1CCCCC1)c[n+]2CCCCCC1CCCCC1"
A. 2.5 µg/mL

Q. Determine its reported MIC: C[C@@H]1[C@H](O)[C@@H](C)/C=C/C=C/C=C/C=C/C=C/C=C/C=C/[C@H](O[C@@H]2O[C@H](C)[C@@H](O)[C@H](N)[C@@H]2O)C[C@@H]2O[C@](O)(C[C@@H](O)C[C@@H](O)[C@H](O)CC[C@@H](O)C[C@@H](O)CC(=O)O[C@H]1C)C[C@H](O)[C@H]2C(=O)O [AMPHOTERICIN B]
A. 0.62 µg/mL

Q. Determine its reported MIC: "Cc1cc(C)c(CSc2cc3ccccc3[n+](CCCCCC3CCCCC3)c2)c(C)c1.[I-]"
A. 0.63 µg/mL

Q. Determine its reported MIC: "Fc1ccc(Oc2cc3ccccc3[n+](CCCCCC3CCCCC3)c2)cc1.[I-]"
A. > 20 µg/mL

Q. Determine its reported MIC: "CC(C)(C)c1ccc(CSc2cc3ccccc3[n+](CCCCCC3CCCCC3)c2)cc1.[I-]"
A. 20 µg/mL

Q. Determine its reported MIC: "COc1ccc(CSc2cc3ccccc3[n+](CCCCCC3CCCCC3)c2)cc1.[I-]"
A. 0.63 µg/mL

Q. Determine its reported MIC: "[I-].c1ccc(CCSc2cc3ccccc3[n+](CCCCCC3CCCCC3)c2)cc1"
A. 5 µg/mL

Q. Determine its reported MIC: "COc1cccc(CSc2cc3ccccc3[n+](CCCCCC3CCCCC3)c2)c1.[I-]"
A. 2.5 µg/mL

###

# assaySummary: Selectivity index, ratio of TC50 for african green monkey Vero cells to IC50 for Cryptococcus neoformans ATCC 90113
# Format: toxicity, cell-based
# details: read-out: Selectivity Index
selectivity ratio values for the compounds below.

> print(dat)
                                givensmiles  experimentalresult
1  [I-].c1ccc2cc(Sc3cc4ccccc4[n+](CCCCCC4CCCCC4)c3)ccc2c1               > 111

Q. Determine its reported selectivity ratio: "Clc1ccc(CSc2cc3ccccc3[n+](CCCCCC3CCCCC3)c2)cc1.[I-]"
A. 26

###

# System: Nakaseomyces glabratus
# assaySummary: Antimicrobial activity against Candida glabrata by Alamar blue method
# Assay type: functional, organism-based
property: MFC (µg/mL)
# output: bare number, implied unit µg/mL

> print(dat)
                                givensmiles  property  experimentalresult
1  COc1ccc(CSc2cc3ccccc3[n+](CCCCCC3CCCCC3)c2)cc1.[I-]       MFC                  10
2  Clc1ccccc1CSc1cc2ccccc2[n+](CCCCCC2CCCCC2)c1.[I-]       MFC                  10

With those in mind, consider the next compound.
Q. Determine its reported MFC: "Cc1ccc(CSc2cc3ccccc3[n+](CCCCCC3CCCCC3)c2)cc1.[I-]"
A. 5

###

# System: Nakaseomyces glabratus
# assaySummary: Antimicrobial activity against Candida glabrata by Alamar blue method
# Type: functional, organism-based
property: log10 of MIC (log10 of the value in µg/mL)
Values reflect log10 of reported MIC (µg/mL).

Consider the reported log10 of MIC for these compounds:
givenSmiles	experimentalResult
[I-].c1ccc(CCSc2cc3ccccc3[n+](CCCCCC3CCCCC3)c2)cc1	1.30
Cc1ccccc1CSc1cc2ccccc2[n+](CCCCCC2CCCCC2)c1.[I-]	0.70
[I-].c1ccc2cc(Sc3cc4ccccc4[n+](CCCCCC4CCCCC4)c3)ccc2c1	0.40
C[C@@H]1[C@H](O)[C@@H](C)/C=C/C=C/C=C/C=C/C=C/C=C/C=C/[C@H](O[C@@H]2O[C@H](C)[C@@H](O)[C@H](N)[C@@H]2O)C[C@@H]2O[C@](O)(C[C@@H](O)C[C@@H](O)[C@H](O)CC[C@@H](O)C[C@@H](O)CC(=O)O[C@H]1C)C[C@H](O)[C@H]2C(=O)O	-0.20

Q. Determine its reported log10 of MIC: "Clc1ccc(CSc2cc3ccccc3[n+](CCCCCC3CCCCC3)c2)cc1Cl.[I-]"
A. 0.70

Q. Determine its reported log10 of MIC: "Cc1cccc(CSc2cc3ccccc3[n+](CCCCCC3CCCCC3)c2)c1.[I-]"
A. 0.70

Q. Determine its reported log10 of MIC: "Fc1ccccc1CSc1cc2ccccc2[n+](CCCCCC2CCCCC2)c1.[I-]"
A. 1.30

Q. Determine its reported log10 of MIC: "Clc1ccc(CSc2cc3ccccc3[n+](CCCCCC3CCCCC3)c2)cc1.[I-]"
A. 0.11

Q. Determine its reported log10 of MIC: "[I-].c1ccc(CSc2cc3ccccc3[n+](CCCCCC3CCCCC3)c2)cc1"
A. 0.70

Q. Determine its reported log10 of MIC: "COc1ccc(CSc2cc3ccccc3[n+](CCCCCC3CCCCC3)c2)cc1.[I-]"
A. 1.00

###

# System: Staphylococcus aureus
# assaySummary: Antimicrobial activity against Staphylococcus aureus ATCC 29213 by Alamar blue method
# Type: functional, organism-based
# details: Staphylococcus aureus, ATCC 29213
property: MIC

Q. Determine its reported MIC: "Clc1ccccc1CSc1cc2ccccc2[n+](CCCCCC2CCCCC2)c1.[I-]"
A. 1.3 µg/mL

Q. Determine its reported MIC: "[I-].c1ccc2cc(Sc3cc4ccccc4[n+](CCCCCC4CCCCC4)c3)ccc2c1"
A. 0.63 µg/mL

Q. Determine its reported MIC: "COc1ccccc1CSc1cc2ccccc2[n+](CCCCCC2CCCCC2)c1.[I-]"
A. 0.63 µg/mL

Q. Determine its reported MIC: "FC(F)(F)c1ccccc1CSc1cc2ccccc2[n+](CCCCCC2CCCCC2)c1.[I-]"
A. 0.31 µg/mL

Q. Determine its reported MIC: "COc1cccc(CSc2cc3ccccc3[n+](CCCCCC3CCCCC3)c2)c1.[I-]"
A. 0.63 µg/mL

Q. Determine its reported MIC: "Brc1ccc(CSc2cc3ccccc3[n+](CCCCCC3CCCCC3)c2)cc1.[I-]"
A. 0.63 µg/mL

Q. Determine its reported MIC: "N#Cc1ccccc1CSc1cc2ccccc2[n+](CCCCCC2CCCCC2)c1.[I-]"
A. 1.3 µg/mL

Q. Determine its reported MIC: "Fc1ccc(CSc2cc3ccccc3[n+](CCCCCC3CCCCC3)c2)cc1.[I-]"
A. 0.63 µg/mL

Q. Determine its reported MIC: "Clc1ccc(CSc2cc3ccccc3[n+](CCCCCC3CCCCC3)c2)cc1Cl.[I-]"
A. 2.5 µg/mL

Q. Determine its reported MIC: "FC(F)(F)c1ccc(CSc2cc3ccccc3[n+](CCCCCC3CCCCC3)c2)cc1.[I-]"
A. 0.63 µg/mL

Q. Determine its reported MIC: "Cc1ccc(CSc2cc3ccccc3[n+](CCCCCC3CCCCC3)c2)cc1.[I-]"
A. 0.63 µg/mL

Q. Determine its reported MIC: "Oc1ccc(CSc2cc3ccccc3[n+](CCCCCC3CCCCC3)c2)cc1.[I-]"
A. 2.5 µg/mL

Measured values drawn from ChEMBL document CHEMBL3085759 for this set.
